- Tested on: UACC-257
- Test Description: NCI tumour cell line growth inhibition, 48 h
Active and inactive are the calls of the source. Rule as the data show it: active = GI50 up to about 1.1 µM and inactive = higher.
Please reply with one of these outcomes: active, inactive

Solved cases below.
molecule=N=C(N)NC(=N)Nc1ccccc1.Sc1nc2ccccc2s1 category=inactive
molecule="Cc1ccc([N+](=O)[O-])cc1S(=O)(=O)Nc1ccc(C2=NN(C(=O)c3ccccc3)C(c3cccs3)C2)cc1 (centres undefined)" category=inactive
molecule=Cc1cc(S(=O)(=O)Nc2nc3ccsc3c(=O)n2N)c(S)cc1Cl category=inactive
molecule=O=C1[C@H](Cl)[C@H]2c3cc4ccccc4nc3Oc3ccccc3N12 category=inactive

Prompt: Call for entry `Nn1c(-c2ccccc2Cl)nc2ccccc2c1=O` :
Completion: inactive

Prompt: Record request — test call for `C/C(=N\Nc1ncnc2ccccc12)c1ccccn1`
Completion: active

Prompt: Any idea what this test logged for COC(=O)CN(CC(=O)NCCCBr)C1CCCCC1N(CC(=O)OC)CC(=O)OC (centres undefined) ?
Completion: inactive

Prompt: Given `CC1=C(c2cc(C(=O)Nc3ccc(Cl)c(Cl)c3)nc(N)n2)Sc2ccccc2N1` , state the outcome it received in this test.
Completion: inactive

Prompt: Per the assay record, what outcome was assigned to NC1OC(COC(=O)c2ccccc2)C(O)C(OC(=O)c2ccccc2)C1OC(=O)c1ccccc1 (centres undefined) ?
Completion: inactive

====

- Test system: 786-0
- Test Description: NCI tumour cell line growth inhibition, 48 h
Active and inactive are the calls of the source. Rule as the data show it: active = GI50 up to about 1.1 µM and inactive = higher.
Outcome field: choose from active, inactive

Worked cases, answers included:
molecule=CCN(CC)CCOC(c1ccccc1)c1ccccc1.CCOC(=O)Nc1ccc(S(=O)(=O)OC)cc1.CCOC(=O)Nc1ccc(S(=O)(=O)OC)cc1.Nc1ccc(C(=O)O)c(O)c1 category=inactive
molecule="CC(C)OP(=O)(OC(C)C)C(Nc1cccc(C(F)(F)F)c1)c1ccccc1 (stereo unspecified)" category=inactive
molecule="COc1cc(C2c3cc4c(cc3OC(NNc3ccccc3)C2C)OCO4)cc(OC)c1O (stereo unspecified)" category=inactive
molecule=O=C(CSC1=NCCN1)c1ccccc1 category=inactive
molecule="COC1/C=C/C(C)C(C(C)C(OC)C(C)CCC(=O)C(C)C(C/C=C/N(C)C=O)OC)OC(=O)/C=C/C=C(\\C)CC(OC)C(OC)C2=CC(=O)O[C@@H](C(C)C(OC)CC(OC)/C=C/C(C)C(O)C1)[C@H]2O (stereo partly specified)" category=active

Okay, now this molecule:
Prompt: Called result for `CCC(/C=C/c1ccccc1)=N\NC(=S)N/N=C(/C=C/c1ccccc1)CC`
Completion: inactive

====

- Test system: Hs-578T
- Test Description: NCI tumour cell line growth inhibition, 48 h
Calls of active or inactive are those of the source. Rule as the data show it: active = GI50 up to about 1.1 µM and inactive = higher. Where a SMILES comes first, the peptide text is derived from it. [ ]: non-standard residue; d: D form. Aoe = N[C@@H](CCCCCC(=O)[C@@H]1CO1)C(=O)O
Output constraint: value belongs to true for active, false for inactive

Reference set (4 entries):
compound=O=C(CCc1cc(O)cc(O)c1)NCCc1cc(O)cc(O)c1 category=false
compound="CC(NC(=O)C(C)C(=O)NCc1ccc(C(F)(F)F)cc1)C(N)=O (configuration not stated)" category=false
compound="CCCCC(=C=C(C)CO)C1CCCN1C(=O)OC(C)(C)C (configuration not stated)" category=false
compound="O=C1N[C@@H](Cc2ccccc2)C(=O)N2CCC[C@@H]2C(=O)N[C@@H](CCCCCC(=O)[C@@H]2CO2)C(=O)N[C@H]1Cc1ccccc1 [TRAPOXIN B] (cyclo(FF[dP][Aoe]))" category=true

Prompt: What was the test verdict on `Cc1oc2nc(N(C)C)nc(NN)c2c1C` ?
Completion: false

Prompt: Could you check what this test reported for `Cc1ccc(S(=O)(=O)NC(=O)NS(=O)(=O)O)cc1` ?
Completion: false

Prompt: Returns: the outcome recorded for `COC(=O)C1=C(C)N2[C@H](C(=O)O)CO[C@@]2(C)[C@H](C(=O)OC)[C@H]1c1cccc([N+](=O)[O-])c1` in this assay.
Completion: false
